Exercise: for every item that follows, state its recorded OR10a response (VUAA1-normalized response).
Biological target: Drosophila OR10a (Drosophila melanogaster, UniProt Q9VYZ1)
Construct: expressed in transfected cells
Sequence (Q9VYZ1 1-406): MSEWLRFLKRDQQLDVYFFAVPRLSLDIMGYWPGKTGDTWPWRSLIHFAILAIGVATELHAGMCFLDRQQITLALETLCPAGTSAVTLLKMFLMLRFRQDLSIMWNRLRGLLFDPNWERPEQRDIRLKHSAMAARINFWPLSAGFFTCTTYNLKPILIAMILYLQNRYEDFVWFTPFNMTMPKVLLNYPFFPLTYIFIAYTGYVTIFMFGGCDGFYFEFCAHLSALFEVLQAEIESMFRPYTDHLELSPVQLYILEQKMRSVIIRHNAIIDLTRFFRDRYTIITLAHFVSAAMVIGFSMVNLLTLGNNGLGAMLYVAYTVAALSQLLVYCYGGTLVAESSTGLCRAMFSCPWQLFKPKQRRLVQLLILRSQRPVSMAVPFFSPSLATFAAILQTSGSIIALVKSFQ
Sequence (Q9VNB5 1-486 partner): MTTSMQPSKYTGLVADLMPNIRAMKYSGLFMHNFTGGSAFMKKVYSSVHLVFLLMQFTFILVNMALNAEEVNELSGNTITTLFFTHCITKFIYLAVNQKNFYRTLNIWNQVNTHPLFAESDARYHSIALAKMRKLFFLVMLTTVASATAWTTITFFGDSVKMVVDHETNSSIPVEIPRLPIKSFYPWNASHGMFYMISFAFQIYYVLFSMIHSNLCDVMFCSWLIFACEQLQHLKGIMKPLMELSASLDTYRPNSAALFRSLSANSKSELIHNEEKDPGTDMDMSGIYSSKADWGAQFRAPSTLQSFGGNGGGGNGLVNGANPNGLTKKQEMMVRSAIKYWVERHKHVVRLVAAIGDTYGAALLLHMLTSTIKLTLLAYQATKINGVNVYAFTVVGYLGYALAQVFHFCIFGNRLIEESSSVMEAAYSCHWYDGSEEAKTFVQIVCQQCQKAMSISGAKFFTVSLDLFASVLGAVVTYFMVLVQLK
Experiment: Calcium ion fluorescence (GCaMP6) assay, OR10a stable HEK293 cell line
Format: cell-based
Settings: VOC concentration 10 μM

Examples with answers:
[[record]]
compound = "C=C1[C@H]2CC[C@@H]3[C@H]2C(C)(C)CCC[C@]13C [(+)-longifolene]"
result = 0.0537

[[record]]
compound = "C=C(C)[C@H]1CC=C(C)CC1 [limonene]"
result = 0.00

[[record]]
compound = "CC/C=C\\CCO"
result = 0.00


For each of the compounds below, state OR10a response (VUAA1-normalized response).
1. C=C(C)[C@H]1CC=C(C)CC1 [(R)-(+)-limonene]
2. CC(C)=CCC/C(C)=C/CC/C(C)=C/CO
3. C=C(C)C1CCC2(C)OC2C1 (single isomer, unassigned; (+)) [(+)-limonene oxide]
4. CC1=CCC[C@@]2(C)[C@@H]3CC[C@]12CC3(C)C [(−)-α-neoclovene]

output:
1. 0.12
2. 0.0633
3. 0.00
4. 0.13
